Give measured IC50 for each item. Keep answers brief.

Entry COCc1nn(Cc2ccc3c(c2)CN(C)CC3(C)C)cc1C(=O)NCc1c(-n2cc(C)nn2)ccc(OC)c1F [Example 134] , tested on Human FXIa (Homo sapiens (Human)), has a reported IC50 of > 40 µM

Entry COCc1nn(Cc2ccc3c(c2)CCN(C)C3)cc1C(=O)NCc1c(-n2cc(C)nn2)ccc(OC)c1F [Example 36] , tested on Human FXIa (Homo sapiens (Human)), has a reported IC50 of > 4 µM

Entry COCc1nn(Cc2ccc3c(c2)CCN(C(C)C)C3)cc1C(=O)NCc1c(-n2cc(C)nn2)ccc(OC)c1F [Example 37] , tested on Human FXIa (Homo sapiens (Human)), has a reported IC50 of > 40 µM

Entry COCc1nn(Cc2ccc3c(c2)CCN(C(C)C)CC3)cc1C(=O)NCc1c(-n2cc(C)nn2)ccc(OC)c1F [Example 122] , tested on Human FXIa (Homo sapiens (Human)), has a reported IC50 of > 40 µM

Entry COCc1nn(Cc2cc3c(cc2F)CCN(C)C3)cc1C(=O)NCc1c(-n2cc(C)nn2)ccc(OC)c1F [Example 118] , tested on Human FXIa (Homo sapiens (Human)), has a reported IC50 of 9.9 µM

Entry COCc1nn(Cc2ccc3c(c2)CNCCO3)cc1C(=O)NCc1c(-n2cc(C)nn2)ccc(OC)c1F [Example 110] , tested on Human FXIa (Homo sapiens (Human)), has a reported IC50 of > 40 µM

Entry COCc1nn(Cc2ccc3c(c2)C(C)(C)N(C)C3)cc1C(=O)NCc1c(-n2cc(C)nn2)ccc(OC)c1F [Example 124] , tested on Human FXIa (Homo sapiens (Human)), has a reported IC50 of > 40 µM

Entry COCc1nn(Cc2ccc3c(c2)CNC3)cc1C(=O)NCc1c(-n2cc(C)nn2)ccc(OC)c1F [Example 53] , tested on Human FXIa (Homo sapiens (Human)), has a reported IC50 of > 4 µM

Entry CCN1CCc2cc(Cn3cc(C(=O)NCc4c(-n5cnc(C(F)(F)F)n5)ccc(OC)c4F)c(COC)n3)ccc2C1 [Example 51] , tested on Human FXIa (Homo sapiens (Human)), has a reported IC50 of > 40 µM

Entry COCc1nn(Cc2ccc3c(c2)CCN(C)CC3)cc1C(=O)NCc1c(-n2cnc(C(F)(F)F)n2)ccc(OC)c1F [Example 158] , tested on Human FXIa (Homo sapiens (Human)), has a reported IC50 of > 40 µM

Entry COCc1nn(Cc2ccc3c(c2)CCN(C(C)C)C3)cc1C(=O)NCc1c(-n2cnc(C(F)(F)F)n2)ccc(OC)c1F [Example 45] , tested on Human FXIa (Homo sapiens (Human)), has a reported IC50 of > 40 µM

Entry COCc1nn(Cc2ccc3nc(C)ccc3c2)cc1C(=O)NCc1c(-n2cnnn2)ccc(OC)c1F [RC2, reference compound] , tested on Human FXIa (Homo sapiens (Human)), has a reported IC50 of 0.218 µM

Entry CCc1ncn(-c2ccc(OC)c(F)c2CNC(=O)c2cn(Cc3ccc4c(c3)CN(C)CC4)nc2COC)n1 [Example 6] , tested on Human FXIa (Homo sapiens (Human)), has a reported IC50 of > 40 µM

Entry COCc1nn(Cc2ccc3c(c2)CCN(C)C3)cc1C(=O)NCc1c(-n2cnc(C(F)F)n2)ccc(OC)c1F [Example 41] , tested on Human FXIa (Homo sapiens (Human)), has a reported IC50 of > 40 µM
